Overview of recorded IC (TGI) for various compounds
Test system: OVCAR-4 ovarian cancer cell line
experiment-summary: NCI five-dose testing
Format: cell-based
condition-description: Homo sapiens, OVCAR-4; read-out: TGI (total growth inhibition concentration)

Before answering, review these 7 worked examples.
>  <compound>
COc1cccc(-c2nn(-c3ccccc3)cc2-c2ccnc(NCCNS(=O)(=O)c3ccc(C(F)(F)F)cc3)c2)c1 [Compound 1g]

>  <result>
> 100 µM

$$$$
>  <compound>
O=S(=O)(NCCCNc1cc(-c2cn(-c3ccccc3)nc2-c2cccc(O)c2)ccn1)c1ccc(Br)cc1 [Compound 2k]

>  <result>
8.6 µM

$$$$
>  <compound>
O=S(=O)(NCCCNc1cc(-c2cn(-c3ccccc3)nc2-c2cccc(O)c2)ccn1)c1ccc(F)cc1 [Compound 2m]

>  <result>
4.8 µM

$$$$
>  <compound>
O=S(=O)(NCCNc1cc(-c2cn(-c3ccccc3)nc2-c2cccc(O)c2)ccn1)c1ccc(C(F)(F)F)cc1 [Compound 1o]

>  <result>
16.9 µM

$$$$
>  <compound>
COc1cccc(-c2nn(-c3ccccc3)cc2-c2ccnc(NCCCNS(=O)(=O)c3cccc(F)c3)c2)c1 [Compound 2h]

>  <result>
> 100 µM

$$$$
>  <compound>
O=S(=O)(NCCCNc1cc(-c2cn(-c3ccccc3)nc2-c2cccc(O)c2)ccn1)c1cccc2ccccc12 [Compound 2q]

>  <result>
> 100 µM

$$$$
>  <compound>
O=S(=O)(NCCCNc1cc(-c2cn(-c3ccccc3)nc2-c2cccc(O)c2)ccn1)c1ccc(C(F)(F)F)cc1 [Compound 2o]

>  <result>
5.1 µM

$$$$

// next item, IC (TGI) requested
# lookup: IC (TGI) of COc1cccc(-c2nn(-c3ccccc3)cc2-c2ccnc(NCCCNS(=O)(=O)c3ccc(C(F)(F)F)cc3)c2)c1 [Compound 2g]
> 100 µM
